molecular target: His6-AspH315–758 (human aspartate/asparagine-β-hydroxylase, AspH) (Homo sapiens); construct: N-Terminally His6-tagged human AspH315–758 (His6-AspH315–758) was produced in E. coli BL21 (DE3) cells; made in house; host or cells: E. coli BL21 (DE3), pET-28a(+) vector; experiment: SPE-MS AspH inhibition assay (LOPAC screen at fixed 20 μM and IC50 dose-response), hydroxylation of cyclic peptide hFX-CP101–119; format: biochemical
Sequence (Q12797 315-758): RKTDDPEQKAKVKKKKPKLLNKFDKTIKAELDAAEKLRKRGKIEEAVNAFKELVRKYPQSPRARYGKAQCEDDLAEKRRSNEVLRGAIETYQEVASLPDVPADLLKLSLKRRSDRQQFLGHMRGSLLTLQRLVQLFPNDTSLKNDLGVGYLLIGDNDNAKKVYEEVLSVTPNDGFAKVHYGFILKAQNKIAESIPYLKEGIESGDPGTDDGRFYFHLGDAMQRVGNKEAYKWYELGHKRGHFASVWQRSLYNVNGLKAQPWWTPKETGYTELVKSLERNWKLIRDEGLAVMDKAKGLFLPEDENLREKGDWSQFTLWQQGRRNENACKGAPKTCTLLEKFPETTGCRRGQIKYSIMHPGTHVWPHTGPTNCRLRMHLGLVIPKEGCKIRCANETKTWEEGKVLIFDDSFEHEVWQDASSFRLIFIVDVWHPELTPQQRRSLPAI
Where a name gives a salt, the structure may show the parent alone.
The following compounds are shown together with reported Plate 3 (% conversion) values.
Endpoint name: Plate 3 (% conversion) (%)

Compound: C[C@@]12N[C@@H](Cc3ccccc31)c1ccccc12.O=C(O)/C=C\C(=O)O [(-)-MK-801 hydrogen maleate]
Assayed target: His6-AspH315–758 (human aspartate/asparagine-β-hydroxylase, AspH) (Homo sapiens)
Endpoint name: Plate 3 (% conversion)
Readout value: 36.17

Compound: CN1CCN(C2Cc3ccccc3Sc3ccc(Cl)cc32)CC1.O=C(O)/C=C\C(=O)O (racemic) [(±)-Octoclothepin maleate]
Assayed target: His6-AspH315–758 (human aspartate/asparagine-β-hydroxylase, AspH) (Homo sapiens)
Endpoint name: Plate 3 (% conversion)
Readout value: 45.22

Compound: CN[C@@H]1C[C@@H](c2ccc(Cl)c(Cl)c2)c2ccccc21 [Indatraline hydrochloride]
Assayed target: His6-AspH315–758 (human aspartate/asparagine-β-hydroxylase, AspH) (Homo sapiens)
Endpoint name: Plate 3 (% conversion)
Readout value: 41.79

Compound: CNCCc1c[nH]c2ccc(O)cc12.O=C(O)C(=O)O
Assayed target: His6-AspH315–758 (human aspartate/asparagine-β-hydroxylase, AspH) (Homo sapiens)
Endpoint name: Plate 3 (% conversion)
Readout value: 9.71

Compound: Cn1ccnc1 [1-Methylimidazole]
Assayed target: His6-AspH315–758 (human aspartate/asparagine-β-hydroxylase, AspH) (Homo sapiens)
Endpoint name: Plate 3 (% conversion)
Readout value: 20.25

Compound: CC(=O)[C@H]1CC[C@H]2[C@@H]3CC[C@H]4C[C@H](O)CC[C@]4(C)[C@H]3C(=O)C[C@]12C [5alpha-Pregnan-3alpha-ol-11,20-dione]
Assayed target: His6-AspH315–758 (human aspartate/asparagine-β-hydroxylase, AspH) (Homo sapiens)
Endpoint name: Plate 3 (% conversion)
Readout value: 35.35

====

The following compounds are shown together with reported % inhibition values.
target: His6-AspH315–758 (human aspartate/asparagine-β-hydroxylase, AspH) (Homo sapiens); construct: N-Terminally His6-tagged human AspH315–758 (His6-AspH315–758) was produced in E. coli BL21 (DE3) cells; made in house; host or cells: E. coli BL21 (DE3), pET-28a(+) vector; assay: SPE-MS AspH inhibition assay (LOPAC screen at fixed 20 μM and IC50 dose-response), hydroxylation of cyclic peptide hFX-CP101–119; assay type: biochemical; settings: LOPAC Plate 4, compound at 20 uM
Where a name gives a salt, the structure may show the parent alone.

Compound: Cc1ccc(/C(=C\CN2CCCC2)c2ccccn2)cc1.Cl [Triprolidine hydrochloride]
% inhibition [%]: -7.68
//
Compound: Cc1nc(N=Nc2ccc(S(=O)(=O)O)cc2S(=O)(=O)O)c(COP(=O)(O)O)c(C=O)c1O [PPADS]
% inhibition [%]: 84.93
//
Compound: O=c1[nH]c2ccccc2c2ccccc12 [6(5H)-Phenanthridinone]
% inhibition [%]: -0.0747
//
Compound: COc1cc2nc(N3CCCN(C)CC3)nc(NC3CCN(Cc4ccccc4)CC3)c2cc1OC [BIX 01294 trihydrochloride hydrate]
% inhibition [%]: -9.31
